FYI, the data here is from the supplement of paper PMC13380429.

# Test system: Calu-3
# Assay: cell viability relative to DMSO; higher = less toxic
# Conditions: 72 h; 10 nM
Readout kind: cell viability (%)

- O=C1CN(/N=C/c2ccc([N+](=O)[O-])o2)C(=O)N1: 111
- Cc1cc(OCc2nc(-c3ccccc3Cl)cs2)ccc1OCC(=O)O: 99.8
- CC(C)(N)CC12CC3CC(CC(C3)C1)C2: 99.8
- CN(C)CCCC(=O)Nc1ccc(C(=O)Nc2cccc(Nc3ncc(Cl)c(-c4c[nH]c5ccccc45)n3)c2)cc1: 103
- COc1ccc2cc(OCC3(C(=O)O)CN(C(=O)c4ccc(F)cc4)C3)ccc2c1: 95.4
- CC(=O)Nc1ncc([N+](=O)[O-])s1 [nithiamide]: 98.2
- Cn1cc([S+](C)[O-])c(=O)c2ccc(F)cc21 (centres undefined): 95.5
- CCN1CCN(c2cc(-c3ccc(F)cc3)c3c(n2)CCCCCC3)CC1: 93.4
- COc1cc(N)cn[n+]1-c1ccccc1: 110
